meta.source: BindingDB's records for doi:10.1016/j.chembiol.2004.12.010

Some molecules, each annotated with its measured pEC50.
- assayed target: UniProtKB P29275
- Sequence (P29275 whole entry): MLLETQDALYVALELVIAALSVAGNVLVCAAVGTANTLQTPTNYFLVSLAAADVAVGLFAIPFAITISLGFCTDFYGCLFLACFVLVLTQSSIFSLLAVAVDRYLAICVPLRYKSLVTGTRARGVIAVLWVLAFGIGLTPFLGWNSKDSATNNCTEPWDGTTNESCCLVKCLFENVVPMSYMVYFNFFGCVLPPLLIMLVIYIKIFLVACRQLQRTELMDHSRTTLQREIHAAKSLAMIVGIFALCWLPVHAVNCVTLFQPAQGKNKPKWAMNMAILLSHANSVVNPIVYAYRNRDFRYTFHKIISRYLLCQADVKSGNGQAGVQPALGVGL
- test summary: Binding Assay
pEC50: −log10 of the molar value.

smiles record: NCCCCCNC(=O)[C@H]1O[C@@H](n2cnc3c(N)ncnc32)[C@H](O)[C@@H]1O
value observed: < 5.00
--
smiles record: CNC(=O)[C@H]1O[C@@H](n2cnc3c(NCCN)ncnc32)[C@H](O)[C@@H]1O
value observed: < 5.00
--
smiles record: CCNC(=O)[C@H]1O[C@@H](n2cnc3c(NCc4ccccc4C)ncnc32)[C@H](O)[C@@H]1O
value observed: < 6.00
--
smiles record: CNc1nc(C(=N)N)nc2c1ncn2[C@@H]1O[C@H](CO)[C@@H](O)[C@H]1O
value observed: < 5.00
--
smiles record: Nc1ncnc2c1ncn2[C@@H]1O[C@H](C(=O)NCCO)[C@@H](O)[C@H]1O
value observed: 6.03

Specify reported pEC50 for the molecule shown: CNc1nc(CN)nc2c1ncn2[C@@H]1O[C@H](CO)[C@@H](O)[C@H]1O
< 5.00

Specify reported pEC50 for the molecule shown: Cc1ccccc1CNc1ncnc2c1ncn2[C@@H]1O[C@H](C(=O)NN)[C@@H](O)[C@H]1O
< 4.00

Specify reported pEC50 for the molecule shown: Cc1ccccc1CNc1ncnc2c1ncn2[C@@H]1O[C@H](C(=O)NCCN)[C@@H](O)[C@H]1O
< 6.00

Specify reported pEC50 for the molecule shown: NCCCCNC(=O)[C@H]1O[C@@H](n2cnc3c(N)ncnc32)[C@H](O)[C@@H]1O
< 5.00

Specify reported pEC50 for the molecule shown: NNC(=O)[C@H]1O[C@@H](n2cnc3c(N)ncnc32)[C@H](O)[C@@H]1O
4.92
